In this section, each of the compounds is paired with its reported IC50.
ASSAY_TARGET: human Cav3.2 channels (Homo sapiens, UniProt O95180)
Construct: human Cav3.2 channel ORF (Open Reading Frame) gene
Sequence (O95180 whole entry): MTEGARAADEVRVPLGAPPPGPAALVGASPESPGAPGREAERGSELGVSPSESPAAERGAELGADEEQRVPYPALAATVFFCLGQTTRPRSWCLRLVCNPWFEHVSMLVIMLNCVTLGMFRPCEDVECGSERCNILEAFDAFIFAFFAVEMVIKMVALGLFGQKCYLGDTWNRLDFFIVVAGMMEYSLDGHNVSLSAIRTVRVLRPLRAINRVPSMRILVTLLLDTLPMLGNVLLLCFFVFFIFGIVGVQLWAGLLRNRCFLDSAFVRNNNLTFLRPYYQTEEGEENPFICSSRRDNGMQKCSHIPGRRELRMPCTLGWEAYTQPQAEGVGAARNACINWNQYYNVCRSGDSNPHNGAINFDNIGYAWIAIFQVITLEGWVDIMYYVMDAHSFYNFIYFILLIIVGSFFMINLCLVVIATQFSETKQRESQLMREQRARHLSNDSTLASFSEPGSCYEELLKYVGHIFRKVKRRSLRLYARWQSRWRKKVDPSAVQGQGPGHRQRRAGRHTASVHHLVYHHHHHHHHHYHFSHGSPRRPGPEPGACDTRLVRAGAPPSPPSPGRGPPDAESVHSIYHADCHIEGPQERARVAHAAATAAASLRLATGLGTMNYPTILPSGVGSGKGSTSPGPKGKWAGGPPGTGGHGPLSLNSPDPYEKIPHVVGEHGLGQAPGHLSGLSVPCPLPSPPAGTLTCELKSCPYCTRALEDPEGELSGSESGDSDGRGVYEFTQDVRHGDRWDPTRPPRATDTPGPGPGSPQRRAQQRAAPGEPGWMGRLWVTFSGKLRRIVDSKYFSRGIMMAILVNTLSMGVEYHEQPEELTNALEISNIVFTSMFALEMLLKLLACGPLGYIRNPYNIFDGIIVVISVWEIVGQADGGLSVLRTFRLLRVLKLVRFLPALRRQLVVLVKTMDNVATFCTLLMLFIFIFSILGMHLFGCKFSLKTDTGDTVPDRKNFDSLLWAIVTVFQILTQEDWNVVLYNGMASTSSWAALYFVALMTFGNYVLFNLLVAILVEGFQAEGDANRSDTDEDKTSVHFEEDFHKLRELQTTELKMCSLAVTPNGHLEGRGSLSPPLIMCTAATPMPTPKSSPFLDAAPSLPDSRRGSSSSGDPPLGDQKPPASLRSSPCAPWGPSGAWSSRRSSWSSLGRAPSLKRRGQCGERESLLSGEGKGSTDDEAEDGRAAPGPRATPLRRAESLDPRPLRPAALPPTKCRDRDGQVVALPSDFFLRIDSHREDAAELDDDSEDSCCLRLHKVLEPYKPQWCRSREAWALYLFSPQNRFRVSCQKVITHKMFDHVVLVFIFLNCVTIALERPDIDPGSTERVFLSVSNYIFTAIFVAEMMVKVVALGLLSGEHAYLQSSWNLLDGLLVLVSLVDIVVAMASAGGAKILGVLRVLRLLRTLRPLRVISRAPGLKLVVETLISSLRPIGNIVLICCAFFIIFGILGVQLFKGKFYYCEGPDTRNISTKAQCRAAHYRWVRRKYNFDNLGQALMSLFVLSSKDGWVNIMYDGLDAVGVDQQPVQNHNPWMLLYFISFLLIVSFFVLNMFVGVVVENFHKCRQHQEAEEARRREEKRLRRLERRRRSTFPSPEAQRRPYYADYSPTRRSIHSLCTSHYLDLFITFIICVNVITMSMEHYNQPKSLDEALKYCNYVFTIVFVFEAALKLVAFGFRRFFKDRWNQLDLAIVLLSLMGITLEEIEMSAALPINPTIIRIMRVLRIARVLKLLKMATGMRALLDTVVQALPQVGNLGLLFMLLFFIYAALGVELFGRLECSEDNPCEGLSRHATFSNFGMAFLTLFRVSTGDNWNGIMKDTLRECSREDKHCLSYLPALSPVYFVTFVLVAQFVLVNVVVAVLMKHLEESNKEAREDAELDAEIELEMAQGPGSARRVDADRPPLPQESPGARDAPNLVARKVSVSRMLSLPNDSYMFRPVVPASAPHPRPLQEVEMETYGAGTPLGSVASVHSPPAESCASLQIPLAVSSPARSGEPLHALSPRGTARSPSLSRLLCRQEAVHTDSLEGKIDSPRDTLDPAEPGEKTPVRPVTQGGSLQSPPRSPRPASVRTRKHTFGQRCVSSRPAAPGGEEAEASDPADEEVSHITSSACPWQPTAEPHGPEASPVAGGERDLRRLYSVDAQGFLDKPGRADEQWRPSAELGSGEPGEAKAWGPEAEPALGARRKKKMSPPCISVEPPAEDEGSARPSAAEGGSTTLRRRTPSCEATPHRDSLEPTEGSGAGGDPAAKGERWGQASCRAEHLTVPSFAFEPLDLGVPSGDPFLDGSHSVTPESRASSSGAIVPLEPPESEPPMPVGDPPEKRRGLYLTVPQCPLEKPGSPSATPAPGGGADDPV
PROCEDURE_SUMMARY: T-type calcium blocking action: intracellular calcium (Fluo-4 AM fluorescence) in HEK293 cells steadily expressing human Cav3.2 channels
REPORTED_CONDITIONS: HEK293 cells expressing human Cav3.2; KCl-stimulated calcium influx, Fluo-4 fluorescence; Tables 1 to 3
Description: T-Type Calcium Blocking Action (1) Construction of Cells Steadily Expressing Human Cav3.2 Channels […] The cells steadily expressing human Cav3.2 channels produced by testing method (1) were seeded on a 96-well plate (Dulbecco's modified Eagle medium (DMEM) medium containing 10% fetal bovine serum (FBS) was used as a medium). […] Then, the cells were further allowed to stand at room temperature under light-shielded conditions for 15 minutes and placed in a microplate reader EnVision (PerkinElmer). […]
Please respond with the number in nM and leave the unit unwritten.

O=C(Cc1ccc(C2CC2)cc1)NC1CN(c2ccc(F)c(C(F)(F)F)c2)C1; 880
O=C(Cc1ccc(C(F)(F)F)cc1C(F)(F)F)N[C@@H]1CCN(c2cncc(C(F)(F)F)c2)C1; 1100
CC(C)c1ccc(CC(=O)N[C@@H]2CCN(c3ccc(C(F)(F)F)s3)C2)cc1; 1500
O=C(N[C@@H]1CCN(c2ccc3cc(F)ccc3n2)C1)[C@H]1C[C@@H]1c1nc2ccccc2[nH]1; 130

Please report the recorded IC50 for "O=C(Cc1ccc2ncsc2c1)N[C@@H]1CCN(c2cncc(C(F)(F)F)c2)C1" .
280

Please report the recorded IC50 for "O=C(N[C@@H]1CCN(c2cncc(C(F)(F)F)c2)C1)[C@H]1C[C@@H]1c1nc2ccccc2[nH]1" .
7.9

Please report the recorded IC50 for "O=C(Cc1ccc(N2CCC(F)(F)C2)cc1)N[C@@H]1CCN(c2ccc(C(F)(F)F)nc2)C1" .
180

Please report the recorded IC50 for O=C(N[C@@H]1CCN(c2cncc(C(F)(F)F)c2)C1)C1CC1c1ccc(Cl)cc1 (single isomer, unassigned) [Example 108A] .
5.7

Please report the recorded IC50 for "O=C(Cc1c[nH]c2ccccc12)N[C@@H]1CCN(c2cncc(C(F)(F)F)c2)C1" .
270
